// reported pEC50 per item
- assay_system: rat mGluR5 (Rattus norvegicus, UniProt P31424)
- Construct: expressed in transfected cells; host or cells: human embryonic kidney (HEK) cells
- Sequence (P31424 21-1203): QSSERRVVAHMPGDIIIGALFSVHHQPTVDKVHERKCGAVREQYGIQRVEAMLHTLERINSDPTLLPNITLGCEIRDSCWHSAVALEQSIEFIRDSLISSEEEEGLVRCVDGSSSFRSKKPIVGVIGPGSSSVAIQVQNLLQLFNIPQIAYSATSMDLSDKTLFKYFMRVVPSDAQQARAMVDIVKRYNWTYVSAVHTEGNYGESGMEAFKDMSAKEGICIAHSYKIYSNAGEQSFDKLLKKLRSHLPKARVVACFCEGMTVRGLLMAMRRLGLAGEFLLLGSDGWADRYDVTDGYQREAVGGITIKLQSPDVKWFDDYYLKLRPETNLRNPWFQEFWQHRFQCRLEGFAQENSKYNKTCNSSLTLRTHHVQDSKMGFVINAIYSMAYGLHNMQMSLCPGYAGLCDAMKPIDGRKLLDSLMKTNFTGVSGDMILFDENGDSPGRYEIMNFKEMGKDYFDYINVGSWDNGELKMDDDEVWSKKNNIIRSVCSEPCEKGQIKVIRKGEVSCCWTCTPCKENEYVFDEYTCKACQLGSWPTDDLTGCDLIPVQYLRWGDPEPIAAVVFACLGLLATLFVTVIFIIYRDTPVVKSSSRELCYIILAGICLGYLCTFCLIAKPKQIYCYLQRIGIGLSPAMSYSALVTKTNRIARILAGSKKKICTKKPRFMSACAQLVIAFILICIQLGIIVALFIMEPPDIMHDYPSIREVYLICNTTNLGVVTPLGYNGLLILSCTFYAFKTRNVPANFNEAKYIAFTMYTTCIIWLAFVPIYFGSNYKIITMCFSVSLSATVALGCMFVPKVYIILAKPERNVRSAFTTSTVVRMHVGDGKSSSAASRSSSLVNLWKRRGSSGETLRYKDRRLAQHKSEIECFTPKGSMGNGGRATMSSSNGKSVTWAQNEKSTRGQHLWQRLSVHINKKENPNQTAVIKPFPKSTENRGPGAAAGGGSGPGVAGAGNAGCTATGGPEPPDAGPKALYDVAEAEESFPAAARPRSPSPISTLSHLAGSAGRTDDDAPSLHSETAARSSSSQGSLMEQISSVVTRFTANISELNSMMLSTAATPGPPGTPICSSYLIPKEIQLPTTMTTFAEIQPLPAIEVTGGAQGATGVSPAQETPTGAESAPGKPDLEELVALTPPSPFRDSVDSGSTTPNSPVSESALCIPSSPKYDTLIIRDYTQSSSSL
- measurement_notes: potentiation of mGluR5 response to glutamate, Ca2+ fluorescence (FDSS) in HEK cells transfected with rat mGluR5
- Assay type: cell-based
- settings: Table 1, EC50 for potentiating the mGluR5 receptor; unit inferred; read-out: EC50
Convention used: pEC50 is expressed as -log10 of the molar concentration.

Study these solved cases before continuing.
{"compound": "O=C(c1ccc(C#Cc2ccccc2)cc1)N1CCC(O)(c2ccc(F)cc2)CC1 [drawing 155]", "measured": 5.90}
{"compound": "CC1(O)CCN(C(=O)c2ccc(C#Cc3ccc(F)c(F)c3)cc2)CC1 [Compound 20d]", "measured": 6.81}
{"compound": "COCCNC1CCN(C(=O)c2ccc(C#Cc3ccccc3)cc2)CC1", "measured": 5.92}
{"compound": "O=C(NCC1CCCCC1)c1ccc(C#Cc2ccccc2)cc1", "measured": 7.16}

Now look at this entry.
Input: Entry O=C(NCCCN1CCOCC1)c1ccc(C#Cc2ccccc2)cc1 : reported pEC50 = ?
Output: 5.91
